Data origin: ChEMBL document CHEMBL1201862

assay-target: Caspase-6 (Homo sapiens, UniProt P55212)
assay-protocol: inhibition of CASP6 peptide cleavage – biochemical, VEID-R110 fluorescence, cherry-pick, dose response (AID 720632)
The source made the active and inactive calls.
quantity-kind: AC50

1. COc1c(O)cc2oc(-c3ccc(O)c(O)c3)cc(=O)c2c1O ... 29.3 µM (active)
2. CC1=NN(c2ccc(S(=O)(=O)O)cc2Cl)C(=O)C1 ... 19 µM (active)
3. COC(=O)CCC(=O)OC1(C)C(=O)C=C2C=C(C3CC3)N(CCCCO)C=C2C1=O (centres undefined) ... 8.77 µM (active)
4. Cc1cc2nc3c(=O)[nH]c(=O)[nH]c3nc2c([N+](=O)[O-])c1N ... 4.58 µM (active)

* * *

assay-target: FAD-linked sulfhydryl oxidase ALR (Homo sapiens, UniProt P55789)
Sequence (P55789 whole entry): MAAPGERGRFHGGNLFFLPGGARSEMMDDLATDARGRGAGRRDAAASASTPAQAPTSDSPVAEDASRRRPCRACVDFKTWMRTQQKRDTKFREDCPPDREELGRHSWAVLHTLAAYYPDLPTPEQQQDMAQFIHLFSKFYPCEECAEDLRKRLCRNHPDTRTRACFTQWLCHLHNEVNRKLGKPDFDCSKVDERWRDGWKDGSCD
assay-protocol: ALR-catalysed DTT oxidation blockers – biochemical, H2O2 detection, luminescence, cherry-pick, dose response (AID 493248)
Structures can show the parent of a compound that is named as a salt. Calls of active or inactive are those of the source.
quantity-kind: AC50

1) CCCCN(CCCNC(=O)C1CCN(S(=O)(=O)CC)CC1)c1ccccc1 ... 131 nM (active)
2) COc1ccc(/C=N/Nc2nc3ccccc3[nH]2)cc1OC ... 285 nM (active)
3) CCN(CC)CCNS(=O)(=O)c1ccc(C(=O)NN)cc1 ... 3390 nM (active)
4) O=C1CC(N2CCc3ccccc32)C(=O)N1c1ccccc1 (configuration not stated) ... 677 nM (active)
5) CN(C)CCCN1c2ccccc2Sc2ccccc21 [PROMAZINE HYDROCHLORIDE] ... 1280 nM (active)
6) COc1c(O)cc2oc(-c3ccc(O)c(O)c3)cc(=O)c2c1O ... 230 nM (active)
7) Cc1ccc2[nH]c(C(=O)O)c(NC(=O)CN3CCN(c4cccc(C)c4C)CC3)c2c1 ... 16300 nM (active)

* * *

assay-target: Replicative DNA helicase DnaB (Mycobacterium tuberculosis, UniProt P9WMR3)
assay-protocol: DnaB intein splicing inhibitors, dose response, biochemical, cell-free fluorescence (AID 449749)
Type: functional
Active and inactive are the calls of the source.
Overview of recorded AC50 for various molecules
quantity-kind: AC50

1) CCCCC[C@H](O)/C=C/[C@@H]1[C@@H](C/C=C\CCCC(=O)OC)[C@@H](O)C[C@H]1O ... 16.1 µM (active)
2) CCOC(=O)C1(CCOc2ccccc2)CCN(Cc2ccc(O)c(Cl)c2)CC1 ... 99.6 µM (active)
3) Cc1ccc2nsnc2c1NS(=O)(=O)c1c(C)ccc2nsnc12 ... 37.8 µM (active)
4) CCOc1ccccc1C1C(C#N)=C(N)Nc2onc(-c3ccccc3)c21 (stereo not given) ... 2.47 µM (active)
5) CC1=NN(c2ccc(S(=O)(=O)O)cc2Cl)C(=O)C1 ... 4.45 µM (active)

* * *

assay-protocol: intracellular Trypanosoma cruzi inhibitors in host cells – cell-based, plate reader, cherry-pick samples, set 3, dose response (AID 651818);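 also: compounds incubated with infected cells for about four days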
Type: functional
The source made the active and inactive calls.
Overview of recorded AC50 for various compounds
quantity-kind: AC50

1) C[C@@H]1CN([C@H](C)CO)C(=O)Cc2cc(NC(=O)Cc3cn(C)c4ccccc34)ccc2O[C@H]1CN(C)Cc1ccc(Oc2ccccc2)cc1 ... 3.74 µM (active)
2) Cc1noc(C)c1S(=O)(=O)Nc1ccc2c(c1)C(=O)N([C@H](C)CO)C[C@H](C)[C@H](CN(C)Cc1ccc(C(=O)Nc3ccccc3N)cc1)O2 ... 3.11 µM (active)
3) C[C@H](CO)N1C[C@H](C)[C@H](CN(C)Cc2ccc3c(c2)OCO3)Oc2ccc(NC(=O)Nc3ccccc3)cc2C1=O ... 8.77 µM (active)
4) COc1ccc(NC(=O)Nc2ccc3c(c2)C(=O)N([C@H](C)CO)C[C@H](C)[C@H](CN(C)Cc2ccc(-c4ccccc4)cc2)O3)cc1 ... 4.77 µM (active)

* * *

assay-target: Sentrin-specific protease 6 (Homo sapiens, UniProt Q9GZR1);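 also: Luminescence-based dose-response confirmatory assay of SENP6 inhibition, following up an ultra-high-throughput screen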
Sequence (Q9GZR1 whole entry): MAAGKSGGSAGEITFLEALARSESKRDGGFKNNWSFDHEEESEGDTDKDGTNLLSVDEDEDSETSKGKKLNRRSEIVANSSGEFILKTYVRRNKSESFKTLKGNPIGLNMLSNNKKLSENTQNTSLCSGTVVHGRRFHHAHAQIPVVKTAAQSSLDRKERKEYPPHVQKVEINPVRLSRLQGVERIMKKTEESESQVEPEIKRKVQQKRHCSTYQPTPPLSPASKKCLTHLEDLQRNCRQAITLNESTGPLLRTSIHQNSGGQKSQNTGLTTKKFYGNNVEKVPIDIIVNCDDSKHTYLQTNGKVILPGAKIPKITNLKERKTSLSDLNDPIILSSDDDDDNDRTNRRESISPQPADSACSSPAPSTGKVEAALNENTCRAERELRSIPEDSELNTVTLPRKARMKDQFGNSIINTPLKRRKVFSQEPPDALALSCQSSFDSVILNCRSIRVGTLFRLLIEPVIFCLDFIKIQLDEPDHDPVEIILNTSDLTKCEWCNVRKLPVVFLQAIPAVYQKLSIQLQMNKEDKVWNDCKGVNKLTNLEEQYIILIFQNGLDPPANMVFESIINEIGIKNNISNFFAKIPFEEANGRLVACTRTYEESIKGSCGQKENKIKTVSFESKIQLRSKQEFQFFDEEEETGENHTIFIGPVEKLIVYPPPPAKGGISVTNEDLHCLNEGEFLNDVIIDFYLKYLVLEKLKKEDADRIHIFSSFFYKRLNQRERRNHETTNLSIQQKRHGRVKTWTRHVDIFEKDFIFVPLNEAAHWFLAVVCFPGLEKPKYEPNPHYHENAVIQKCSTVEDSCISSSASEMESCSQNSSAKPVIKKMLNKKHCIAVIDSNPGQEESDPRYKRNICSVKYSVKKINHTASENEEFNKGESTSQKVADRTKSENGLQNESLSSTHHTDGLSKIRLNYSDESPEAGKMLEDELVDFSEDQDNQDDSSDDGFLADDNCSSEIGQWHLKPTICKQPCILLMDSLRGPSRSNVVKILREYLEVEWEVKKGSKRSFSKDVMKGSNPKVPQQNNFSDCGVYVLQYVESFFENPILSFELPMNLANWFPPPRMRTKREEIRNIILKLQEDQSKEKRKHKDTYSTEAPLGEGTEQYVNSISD
Assay type: functional
Activity calls are given as the source filed them.
Classes used: 1 (yes) = active, 0 (no) = inactive

1) C[N+](=N[N-]c1cccc([N+](=O)[O-])c1)c1ccccc1 ... 1 (yes)
2) Cc1ccc(NC2=CC(=O)C(=O)c3ccccc32)cc1 ... 1 (yes)
3) CC(=O)Nc1nc(COc2ccc3ccccc3c2)cs1 ... 1 (yes)
4) COc1ccc(-c2csc(NC(=O)c3ccco3)n2)cc1 ... 1 (yes)
5) COc1cccc(-c2nc3ccc([N+](=O)[O-])cc3o2)c1 ... 0 (no)
6) O=C(Nc1ccc(Cl)cc1)C1=Cc2ccccc2OC1 ... 1 (yes)

* * *

assay-target: Heat shock protein HSP 90-alpha (Homo sapiens)
Assay type: functional, organism-based
The source made the active and inactive calls.
quantity-kind: AC50

1. Nc1c(C(=O)Nc2ccc3c(c2)OCCO3)nnn1Cc1ccccc1Cl ... 10.3 µM (active)
2. O=C1C=CC(=NNc2ccccc2)C=CC1=O ... 2.02 µM (active)
3. CN(C)c1ccc(/C=c2\c3ccccc3n3c2cc(-c2ccccc2)[n+]3C)cc1 ... 4.19 µM (active)
4. CC(=NNc1nc2ccccc2o1)c1ncccn1 ... 1.97 µM (active)
5. CC(=O)N(C)c1ccc(OCC(O)Cn2c3ccc(Cl)cc3c3cc(Cl)ccc32)cc1 (stereo not given) ... 5.12 µM (active)
6. CC(=O)Oc1ccccc1C(=O)C=Cc1cccc([N+](=O)[O-])c1 ... 3.01 µM (active)
7. COc1cc(C=NO)nc(-c2ccccn2)c1 ... 3.2 µM (active)
8. O=C(O)c1cccc2c1Cc1cc([N+](=O)[O-])ccc1-2 ... 0.357 µM (active)
9. CC(=O)Nc1ccc(Nc2cc(C(C)C)nc3c(-c4ccccc4)c(C)nn23)cc1 ... 3.84 µM (active)
10. O=C(Nc1cccc(C(F)(F)F)c1)Oc1ccc(Cl)c2cccnc12 ... 3.86 µM (active)

* * *

assay-target: Ubiquitin-conjugating enzyme E2 N (Homo sapiens, UniProt P61088);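 also: Dose-response confirmation in a TR-FRET assay detecting UBC13-driven polyubiquitin chain formation, inhibition measured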
Sequence (P61088 whole entry): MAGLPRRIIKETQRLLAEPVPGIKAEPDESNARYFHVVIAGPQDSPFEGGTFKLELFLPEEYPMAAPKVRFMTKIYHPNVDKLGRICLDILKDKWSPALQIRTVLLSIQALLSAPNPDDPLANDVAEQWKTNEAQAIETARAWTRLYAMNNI
Type: functional
The source made the active and inactive calls.
Classes used: TRUE for active, FALSE for inactive

1. N#Cc1ccsc1NC(=O)C1CCN(C(=O)c2ccc(Cl)cc2)CC1 ... FALSE
2. CCCCCc1cc(=O)oc2c(C(CCN(CC)CC)c3ccc(OC)cc3)c(OC)cc(OC)c12 (stereo not drawn) ... FALSE
3. COC(=O)c1c(NC(=O)c2ccc(OC(C)C)cc2)sc2c1CC(C)(C)NC2(C)C ... FALSE
4. O=C(C[n+]1cc(-c2ccc(Cl)c(Cl)c2)n2c1CCC2)N1c2ccccc2Sc2ccccc21 ... FALSE
5. CN(C)CCCn1c(SCC(=O)Nc2nc(-c3cccc(Br)c3)cs2)nc2ccccc2c1=O ... TRUE
6. Cc1ccc(N(C(=O)c2snc(C(N)=O)c2N)C(C(=O)NC2CCCC2)c2ccc(C)o2)cc1 (stereo not drawn) ... TRUE
7. C[C@]12CCCC[C@@H]1CC[C@@H]1[C@@H]2CC[C@@]2(C)[C@H]1CC[C@@]2(O)CNCCO ... FALSE
8. COc1cccc(NC(=O)CSc2nc3ccccc3c(=O)n2CCCC(=O)NCCCN2CCOCC2)c1 ... FALSE
